Each entry below lists one item and its recorded IC50 value.
Molecular target: SIK2 (Homo sapiens, UniProt Q9H0K1)
Construct: purchased ThermoFisher Scientific PV4792
Sequence (Q9H0K1 whole entry): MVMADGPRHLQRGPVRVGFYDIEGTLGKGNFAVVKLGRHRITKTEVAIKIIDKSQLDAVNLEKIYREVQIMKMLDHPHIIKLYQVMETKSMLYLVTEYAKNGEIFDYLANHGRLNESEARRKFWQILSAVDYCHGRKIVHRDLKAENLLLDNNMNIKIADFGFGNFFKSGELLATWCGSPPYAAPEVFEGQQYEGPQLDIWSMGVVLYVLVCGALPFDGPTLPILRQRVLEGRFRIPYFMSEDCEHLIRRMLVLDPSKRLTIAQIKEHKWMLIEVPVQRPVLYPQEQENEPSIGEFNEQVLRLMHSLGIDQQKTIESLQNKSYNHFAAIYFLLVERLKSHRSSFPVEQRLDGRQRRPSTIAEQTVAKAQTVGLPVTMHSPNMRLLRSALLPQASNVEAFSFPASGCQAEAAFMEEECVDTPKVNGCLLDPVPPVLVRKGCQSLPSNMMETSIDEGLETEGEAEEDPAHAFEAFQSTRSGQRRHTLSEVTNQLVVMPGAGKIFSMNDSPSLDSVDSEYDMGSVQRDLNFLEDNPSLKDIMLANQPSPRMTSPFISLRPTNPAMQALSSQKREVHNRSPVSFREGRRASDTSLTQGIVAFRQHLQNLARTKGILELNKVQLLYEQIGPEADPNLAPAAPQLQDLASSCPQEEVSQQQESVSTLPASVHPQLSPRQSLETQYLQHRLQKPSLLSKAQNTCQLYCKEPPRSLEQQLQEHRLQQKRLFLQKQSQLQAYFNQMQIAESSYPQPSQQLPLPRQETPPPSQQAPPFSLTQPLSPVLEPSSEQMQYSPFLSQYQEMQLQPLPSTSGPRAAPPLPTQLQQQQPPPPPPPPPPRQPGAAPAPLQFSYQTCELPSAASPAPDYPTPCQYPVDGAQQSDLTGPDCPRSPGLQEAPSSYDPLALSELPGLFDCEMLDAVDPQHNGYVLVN
Test: biochemical
Details: ADP-Glo SIK kinase assay

>>> result("COc1cc(-c2cnc3cc(-c4cnn(C)c4)ccn23)cc(OC)c1C(=O)N[C@H]1C[C@@H]1C(F)F [compound 172]")
"0.01 to 10 nM"
>>> result("COc1cc(-n2cnc3cc(-c4ccnc(N5CCN(C)CC5)c4)ccc32)cc(OC)c1C(=O)NCC(F)(F)F [compound 120]")
"0.01 to 10 nM"

Proceed to the following item.
QUERY: Please give the measured IC50 for this molecule: COc1ccc(-c2ccn3c(-c4cc(OC)c(C(=O)NC5CC5)c(OC(F)F)c4)cnc3c2)nn1 [compound 280]
RESULT: 0.01 to 10 nM

====

Test system: LPS triggered IL-10 secretion in monocyte-derived macrophages (MdM)
Assay: MdM assay: LPS-triggered IL-10 (ELISA)
Format: cell-based, human
Conditions: maximal fold change vs LPS only, median across assays
measuredAttribute: IL-10 FCmax median

>>> result("CCn1cc(-c2ccc3c(c2)ncn3-c2cc(OC)c(C(=O)NC3C[C@H]3C)c(OC)c2)cn1 (stereo partly shown) [compound 49]")
"++ (>1.5-4.5)"
>>> result("COc1cc(-c2cnc3cc(-c4cnn(C)c4)ccn23)cc(OC(F)F)c1C(=O)NC1CC1 [Cpd 124]")
"++ (>1.5-4.5)"
>>> result("COc1cc(-c2cnc3cc(-c4cnn(C)c4)ccn23)cc(OC)c1C(=O)NCC#N [compound 122]")
"++ (>1.5-4.5)"

====

Molecular target: SIK3 (Homo sapiens)
Construct: purchased SignalChem S12-11G-100
Sequence (Q9Y2K2 whole entry): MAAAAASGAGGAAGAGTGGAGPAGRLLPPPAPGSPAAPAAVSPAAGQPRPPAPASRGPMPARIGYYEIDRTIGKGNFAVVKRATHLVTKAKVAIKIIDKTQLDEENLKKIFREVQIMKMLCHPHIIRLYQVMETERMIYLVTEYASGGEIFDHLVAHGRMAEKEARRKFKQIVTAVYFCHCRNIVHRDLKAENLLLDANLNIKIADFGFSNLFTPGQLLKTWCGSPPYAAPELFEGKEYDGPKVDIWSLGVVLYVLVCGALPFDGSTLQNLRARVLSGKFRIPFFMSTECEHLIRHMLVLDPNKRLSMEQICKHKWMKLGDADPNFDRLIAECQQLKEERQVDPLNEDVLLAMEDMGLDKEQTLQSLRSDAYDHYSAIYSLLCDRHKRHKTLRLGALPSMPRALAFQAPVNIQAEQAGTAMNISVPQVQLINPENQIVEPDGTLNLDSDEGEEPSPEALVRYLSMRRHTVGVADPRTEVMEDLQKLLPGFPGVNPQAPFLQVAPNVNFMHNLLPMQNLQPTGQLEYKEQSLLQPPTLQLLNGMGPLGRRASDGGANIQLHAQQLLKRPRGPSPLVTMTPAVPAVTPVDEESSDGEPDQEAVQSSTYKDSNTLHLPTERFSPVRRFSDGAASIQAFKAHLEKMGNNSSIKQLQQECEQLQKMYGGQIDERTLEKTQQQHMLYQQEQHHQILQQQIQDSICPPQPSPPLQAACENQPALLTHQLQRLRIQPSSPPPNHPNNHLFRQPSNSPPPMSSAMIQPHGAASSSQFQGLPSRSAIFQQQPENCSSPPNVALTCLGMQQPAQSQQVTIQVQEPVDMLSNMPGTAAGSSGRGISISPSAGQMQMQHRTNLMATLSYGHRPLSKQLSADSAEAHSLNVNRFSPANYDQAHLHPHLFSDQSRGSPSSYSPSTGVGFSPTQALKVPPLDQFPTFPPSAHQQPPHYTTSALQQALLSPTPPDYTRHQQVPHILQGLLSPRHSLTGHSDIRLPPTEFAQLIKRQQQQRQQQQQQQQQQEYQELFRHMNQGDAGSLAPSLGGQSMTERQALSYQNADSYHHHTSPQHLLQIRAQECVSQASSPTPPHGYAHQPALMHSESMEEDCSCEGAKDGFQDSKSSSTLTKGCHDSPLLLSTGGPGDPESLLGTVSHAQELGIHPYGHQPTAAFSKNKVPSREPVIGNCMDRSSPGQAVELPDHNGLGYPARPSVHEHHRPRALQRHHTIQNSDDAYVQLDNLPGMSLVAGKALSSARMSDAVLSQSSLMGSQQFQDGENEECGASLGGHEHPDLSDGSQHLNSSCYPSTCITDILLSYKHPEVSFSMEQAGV
Assay: biochemical
pIC50: −log10 of the molar value.
Each entry below lists one item and its recorded pIC50 value.

>>> result("COc1cc(-c2cnc3cc(-c4cccnc4OC)ccn23)cc(OC)c1C(=O)NCC(F)(F)F")
"7.00 to 8.00"
>>> result("COc1cc(-n2cnc3cc(-c4cnn(C)c4)ccc32)cc(OC)c1C(=O)NCCS(C)(=O)=O")
"7.00 to 8.00"
>>> result("COc1cc(-c2cnc3cc(-c4cnn(CC(=O)OC(C)C)c4)ccn23)cc(OC)c1C(=O)NCC(F)(F)F")
"8.00 to 11.00"
>>> result("COc1cc(-n2cnc3cc(-c4cnn(C)c4)ccc32)cc(OC)c1C(=O)Nc1cnn(C)c1")
"6.30 to 7.00"
>>> result("CCN1Cc2cc(-n3cnc4cc(-c5cnn(C)c5)ccc43)cc(NCCO)c2C1=O")
"< 6.30"
>>> result("COc1cc(-c2ccc3c(c2)ncn3-c2cc(OC)c(C(=O)NCC(F)(F)F)c(OC)c2)ccn1")
"7.00 to 8.00"
>>> result("COc1cc(-n2cnc3cc(-c4ccc(C#N)nc4)ccc32)cc(OC)c1C(=O)NCC(F)(F)F")
"7.00 to 8.00"
>>> result("COc1cc(-n2cnc3cc(-c4cnn(C)c4)ccc32)cc(OC)c1C(=O)NC[C@@H]1COCCO1")
"6.30 to 7.00"
>>> result("COc1cc(-c2cnc3cc(-c4cnn(C)c4)ccn23)cc(OC)c1C(=O)N[C@H](C)C(F)(F)F")
"8.00 to 11.00"
>>> result("COc1cc(-c2cnc3cc(-c4cnn(C)c4)ccn23)cc(C)c1C(=O)NCC(F)(F)F")
"7.00 to 8.00"

QUERY: Please give the measured pIC50 for this compound: `COc1cc(-n2cnc3cc(-c4cnn(C)c4)ccc32)cc(OC)c1C(=O)N[C@H](C)C(F)(F)F`
RESULT: 7.00 to 8.00

QUERY: Please give the measured pIC50 for this compound: `COc1cc(-n2cnc3cc(-c4cnc(C)n4C)ccc32)cc(OC)c1C(=O)NCC(F)(F)F`
RESULT: 6.30 to 7.00

QUERY: Please give the measured pIC50 for this compound: `COCCN(C)C(=O)c1c(OC)cc(-c2cnc3cc(-c4cnn(C)c4)ccn23)cc1OC`
RESULT: 6.30 to 7.00
